# System: SW684
# assay-method-text: relative viability vs DMSO control (72 h) (fraction); higher = more viable cells
# experimental-conditions: 0.04115 µM
experimental-readout: relative viability
Quick one: just the number, no unit, thanks!

relative viability recorded for this molecule, CNC(=O)c1cc(Oc2ccc(NC(=O)Nc3ccc(Cl)c(C(F)(F)F)c3)c(F)c2)ccn1 [Regorafenib] , is 1.15

relative viability recorded for this molecule, CN1CCC(COc2cnc(-c3cccc(Cn4nc(-c5cccc(C#N)c5)ccc4=O)c3)nc2)CC1 [Tepotinib] , is 1.15

relative viability recorded for this molecule, C[C@@H]1CCN(C(=O)CC#N)C[C@@H]1N(C)c1ncnc2[nH]ccc12 [Tofacitinib] , is 1.19
